Provide the reported Barnyardgrass plant response rating of each item.
System: barnyardgrass (Echinochloa crus-galli)
assay.remarks: Test C greenhouse herbicide test, pre- and postemergence
Format: in vivo
test.conditions: Preemergence, 250 g ai/ha; scale 0 to 100 (0 no effect, 100 complete control)
Lab note: jot down the number only; don't add units.

Give barnyardgrass (Echinochloa crus-galli) Barnyardgrass plant response rating for the following compound: `Cc1cc(C)c2sc(C)c(-c3c(OC(=O)OC(C)C)c(C)nn(C)c3=O)c2c1`
80

Give barnyardgrass (Echinochloa crus-galli) Barnyardgrass plant response rating for the following compound: `Cc1ccc2ccccc2c1-c1c(O)c(C)nn(C)c1=O`
95

Give barnyardgrass (Echinochloa crus-galli) Barnyardgrass plant response rating for the following compound: `COC(=O)Oc1c(C)nn(C)c(=O)c1-c1c(C)sc2c(C)cc(C)cc12`
98

Give barnyardgrass (Echinochloa crus-galli) Barnyardgrass plant response rating for the following compound: `Cc1ccc2ccccc2c1-c1c(O)c(Cl)nn(C)c1=O`
98

Give barnyardgrass (Echinochloa crus-galli) Barnyardgrass plant response rating for the following compound: `COc1nn(C)c(=O)c(-c2c(C)ccc3ccccc23)c1OC(=O)OC(C)C`
70

Give barnyardgrass (Echinochloa crus-galli) Barnyardgrass plant response rating for the following compound: `Cc1sc2ccc(Cl)cc2c1-c1c(OS(C)(=O)=O)c(Cl)nn(C)c1=O`
95

Give barnyardgrass (Echinochloa crus-galli) Barnyardgrass plant response rating for the following compound: `CCOC(=O)Oc1c(C)nn(C)c(=O)c1-c1c(C)ccc2ccccc12`
85

Give barnyardgrass (Echinochloa crus-galli) Barnyardgrass plant response rating for the following compound: `Cc1nn(C)c(=O)c(-c2c(C)sc3ccc(Cl)cc23)c1O`
80

Give barnyardgrass (Echinochloa crus-galli) Barnyardgrass plant response rating for the following compound: `COC(=O)Oc1c(Br)nn(C)c(=O)c1-c1c(C)ccc2ccccc12`
100

----------
Provide the reported Plant response rating, Lambsquarters of each item.
Tested on: lambsquarters (Chenopodium album)
assay.remarks: Test C greenhouse herbicide test, pre- and postemergence
Assay type: in vivo
test.conditions: Preemergence, 62 g ai/ha; scale 0 to 100, 0 is no effect, 100 is complete control
Lab note: jot down the number only; don't add units.

Provide measured Plant response rating, Lambsquarters value, entry: CCC(=O)Oc1c(Cl)nn(C)c(=O)c1-c1c(C)sc2ccc(Cl)cc12 [Compound 111]
95

Provide measured Plant response rating, Lambsquarters value, entry: Cc1ccc2ccccc2c1-c1c(O)c(C)nn(C)c1=O [Compound 59]
90

Provide measured Plant response rating, Lambsquarters value, entry: CCOC(=O)Oc1c(C)nn(C)c(=O)c1-c1c(CC)ccc2ccccc12 [Compound 37]
60

Provide measured Plant response rating, Lambsquarters value, entry: Cc1ccc2ccc(C)c(-c3c(O)c(C)nn(C)c3=O)c2c1 [Compound 60]
85

Provide measured Plant response rating, Lambsquarters value, entry: Cc1nn(C)c(=O)c(-c2c(C)sc3ccc(Cl)cc23)c1O [Compound 104]
85

Provide measured Plant response rating, Lambsquarters value, entry: CC(=O)Oc1c(C)nn(C)c(=O)c1-c1ccc(F)c2ccccc12 [Compound 90]
80

Provide measured Plant response rating, Lambsquarters value, entry: Cc1cc(C)c2sc(C)c(-c3c(OC(=O)OCCCl)c(C)nn(C)c3=O)c2c1 [Compound 85]
90

Provide measured Plant response rating, Lambsquarters value, entry: CCOC(=O)Oc1c(C)nn(C)c(=O)c1-c1c(C)sc2c(C)cc(C)cc12 [Compound 83]
85

Provide measured Plant response rating, Lambsquarters value, entry: CCCC(=O)Oc1c(C)nn(C)c(=O)c1-c1c(C)sc2c(C)cc(C)cc12 [Compound 106]
90

Provide measured Plant response rating, Lambsquarters value, entry: CC(=O)Oc1c(C)nn(C)c(=O)c1-c1c(C)sc2c(C)cc(C)cc12 [Compound 27]
95

Provide measured Plant response rating, Lambsquarters value, entry: CCOC(=O)Oc1c(C)nn(C)c(=O)c1-c1c(C)sc2ccc(C)cc12 [Compound 82]
90

Provide measured Plant response rating, Lambsquarters value, entry: C#CCOC(=O)Oc1c(C)nn(C)c(=O)c1-c1c(C)sc2ccc(C)cc12 [Compound 87]
80

Provide measured Plant response rating, Lambsquarters value, entry: COC(=O)Oc1c(Br)nn(C)c(=O)c1-c1c(C)ccc2ccccc12 [Compound 137]
100

Provide measured Plant response rating, Lambsquarters value, entry: COc1nn(C)c(=O)c(-c2c(C)ccc3ccccc23)c1O [Compound 54]
85

Provide measured Plant response rating, Lambsquarters value, entry: CCC(=O)Oc1c(C)nn(C)c(=O)c1-c1c(C)sc2ccc(C)cc12 [Compound 42]
80

Provide measured Plant response rating, Lambsquarters value, entry: Cc1sc2ccc(Cl)cc2c1-c1c(OS(C)(=O)=O)c(Cl)nn(C)c1=O [Compound 114]
98

----------
Tested on: kochia (Kochia scoparia)
assay.remarks: Test E greenhouse herbicide test, pre- and postemergence
Type: in vivo
test.conditions: 62 g ai/ha, Postemergence; scale 0 to 100 (0 no effect, 100 complete control)
value.type: Plant response rating, Kochia
Lab note: jot down the number only; don't add units.

Provide measured Plant response rating, Kochia value, entry: `COC(=O)Oc1c(C)nn(C)c(=O)c1-c1c(C)sc2c(C)cc(C)cc12`
70

Provide measured Plant response rating, Kochia value, entry: `CCC(=O)Oc1c(C)nn(C)c(=O)c1-c1c(C)sc2ccc(C)cc12`
85

Provide measured Plant response rating, Kochia value, entry: `CCOC(=O)Oc1c(C)nn(C)c(=O)c1-c1c(C)sc2c(C)cc(C)cc12`
60

Provide measured Plant response rating, Kochia value, entry: `CC(=O)Oc1c(C)nn(C)c(=O)c1-c1c(C)sc2ccc(C)cc12`
95

----------
Provide the reported Plant response rating, Barley, Spring of each item.
System: barley, spring (spring barley, Hordeum vulgare)
assay.remarks: Test D controlled growth environment herbicide test, pre- and postemergence
Format: in vivo
test.conditions: Preemergence, 62 g ai/ha; scale 0 to 100 (0 no effect, 100 complete control)
Lab note: jot down the number only; don't add units.

Give barley, spring (spring barley, Hordeum vulgare) Plant response rating, Barley, Spring for the following compound: Cc1ccc2ccc(C)c(-c3c(O)c(C)nn(C)c3=O)c2c1 [Compound 60]
10

Give barley, spring (spring barley, Hordeum vulgare) Plant response rating, Barley, Spring for the following compound: C#CCOC(=O)Oc1c(C)nn(C)c(=O)c1-c1c(C)sc2ccc(C)cc12 [Compound 87]
0

Give barley, spring (spring barley, Hordeum vulgare) Plant response rating, Barley, Spring for the following compound: CC(=O)Oc1c(C)nn(C)c(=O)c1-c1c(C)cc(C)c2ccccc12 [Compound 153]
0

Give barley, spring (spring barley, Hordeum vulgare) Plant response rating, Barley, Spring for the following compound: COc1nn(C)c(=O)c(-c2c(C)ccc3ccccc23)c1OC(=O)OC(C)C [Compound 36]
0

Give barley, spring (spring barley, Hordeum vulgare) Plant response rating, Barley, Spring for the following compound: COc1nn(C)c(=O)c(-c2c(C)ccc3ccccc23)c1O [Compound 54]
0

----------
System: bluegrass (annual bluegrass, Poa annua)
assay.remarks: Test D controlled growth environment herbicide test, pre- and postemergence
Format: in vivo
test.conditions: Preemergence, 62 g ai/ha; scale 0 to 100 (0 no effect, 100 complete control)
Provide the reported Plant response rating, Bluegrass of each item.
Lab note: jot down the number only; don't add units.

Give bluegrass (annual bluegrass, Poa annua) Plant response rating, Bluegrass for the following compound: `Cc1nn(C)c(=O)c(-c2c(C)sc3ccc(Cl)cc23)c1O`
35

Give bluegrass (annual bluegrass, Poa annua) Plant response rating, Bluegrass for the following compound: `Cc1ccc2ccc(C)c(-c3c(O)c(C)nn(C)c3=O)c2c1`
45

Give bluegrass (annual bluegrass, Poa annua) Plant response rating, Bluegrass for the following compound: `CCC(=O)Oc1c(C)nn(C)c(=O)c1-c1c(C)sc2ccc(C)cc12`
45

Give bluegrass (annual bluegrass, Poa annua) Plant response rating, Bluegrass for the following compound: `CCOC(=O)Oc1c(C)nn(C)c(=O)c1-c1c(C)sc2ccc(C)cc12`
45

Give bluegrass (annual bluegrass, Poa annua) Plant response rating, Bluegrass for the following compound: `CC(=O)Oc1c(Br)nn(C)c(=O)c1-c1c(C)ccc2ccccc12`
10

Give bluegrass (annual bluegrass, Poa annua) Plant response rating, Bluegrass for the following compound: `COc1nn(C)c(=O)c(-c2c(C)ccc3ccccc23)c1O`
10

----------
System: momingglory (Ipomoea coccinea)
assay.remarks: Test E greenhouse herbicide test, pre- and postemergence
Type: in vivo
test.conditions: Preemergence, 250 g ai/ha; visual, scale 0 no effect to 100 complete control
Provide the reported Plant response rating, Morningglory of each item.
Lab note: jot down the number only; don't add units.

Provide measured Plant response rating, Morningglory value, entry: CC(=O)Oc1c(C)nn(C)c(=O)c1-c1c(C)cc(C)c2ccccc12 [Compound 153]
100

Provide measured Plant response rating, Morningglory value, entry: CC(=O)Oc1c(C)nn(C)c(=O)c1-c1c(C)sc2ccc(C)cc12 [Compound 25]
100

Provide measured Plant response rating, Morningglory value, entry: Cc1ccc2sc(C)c(-c3c(O)c(C)nn(C)c3=O)c2c1 [Compound 1]
100

Provide measured Plant response rating, Morningglory value, entry: CCOC(=O)Oc1c(C)nn(C)c(=O)c1-c1c(CC)ccc2ccccc12 [Compound 37]
65
